The entries below are paired with their reported inhibition at 30 mg/kg.
Tested on: ex vivo calcium ionophore-stimulated LTB4 production in whole blood
Assay: Murine arachidonic acid-induced inflammation model: ex vivo stimulated LTB4 production in blood
Parameters: species or system Balb/c mice
Settings: Mus musculus; 30 mg/kg oral gavage; blood diluted 1:1, A23187 stimulated ex vivo; percent inhibition of LTB4 production; read-out: % Inh. LTB4

COMPOUND	inhibition at 30 mg/kg [%]
NC(=O)C1CCN(Cc2coc3cc(Oc4nc5ncccc5s4)ccc23)CC1	80
O=C(c1coc2cc(Oc3nc4ncccc4s3)ccc12)N1CCC(N2CCCC2=O)CC1	78
CC(C)(O)C1CCN(Cc2coc3cc(Oc4nc5ncccc5s4)ccc23)CC1	83
Fc1cnc2nc(Oc3ccc4c(CN5CCOCC5)c[nH]c4c3)sc2c1	84
CC(=O)N1CCN(CCc2coc3cc(Oc4nc5ncccc5s4)ccc23)CC1	68.7
c1cnc2nc(Oc3ccc4c(CN5CCCC5)coc4c3)sc2c1	75
c1cnc2nc(Oc3ccc4c(CN5C[C@@H]6C[C@H]5CO6)coc4c3)sc2c1	95
NC(=O)C1CCN(Cc2cc3ccc(Oc4nc5ncccc5s4)cc3o2)CC1	76
CC(=O)N[C@H]1C[C@@H]2C[C@H]1CN2Cc1cc2ccc(Oc3nc4ncccc4s3)cc2o1	76
CC(=O)N1CC2CN(Cc3cc4cc(Oc5nc6ncccc6s5)ccc4o3)CC2C1 (stereo not shown)	61
O=C(O)C1CCN(Cc2cc3cc(Oc4nc5ccccc5s4)ccc3o2)CC1	85
CC(=O)N1C[C@H]2CC[C@@H](C1)N2Cc1cc2ccc(Oc3nc4ncccc4s3)cc2o1	78
CC(=O)N[C@H]1C[C@H]2CC[C@@H](C1)N2Cc1cc2ccc(Oc3nc4ncccc4s3)cc2o1	89
CC(=O)N1C[C@H]2CC[C@@H](C1)N2Cc1coc2cc(Oc3nc4ncccc4s3)ccc12	84
NC(=O)NC1CCN(Cc2coc3cc(Oc4nc5ncccc5s4)ccc23)CC1	50
NC(=O)N1C[C@@H]2C[C@H]1CN2Cc1cc2cc(Oc3nc4ncccc4s3)ccc2o1	44
OCC1CCN(Cc2coc3cc(Oc4nc5ncccc5s4)ccc23)CC1	74
CC(=O)N1C[C@H]2CC[C@@H](C1)N2Cc1cc2cc(Oc3nc4ncccc4s3)ccc2o1	85
CC(=O)N1C[C@H]2C[C@@H]1CN2C(=O)c1cc2cc(Oc3nc4ncccc4s3)ccc2o1	78
